Let's look at some compounds and their measured IC50.
# target desc: H^+ +K^+ ATPase (Sus scrofa, UniProt P19156)
# Construct: prepared from the stomach of a pig
# Sequence (P19156 2-1034 limits assumed): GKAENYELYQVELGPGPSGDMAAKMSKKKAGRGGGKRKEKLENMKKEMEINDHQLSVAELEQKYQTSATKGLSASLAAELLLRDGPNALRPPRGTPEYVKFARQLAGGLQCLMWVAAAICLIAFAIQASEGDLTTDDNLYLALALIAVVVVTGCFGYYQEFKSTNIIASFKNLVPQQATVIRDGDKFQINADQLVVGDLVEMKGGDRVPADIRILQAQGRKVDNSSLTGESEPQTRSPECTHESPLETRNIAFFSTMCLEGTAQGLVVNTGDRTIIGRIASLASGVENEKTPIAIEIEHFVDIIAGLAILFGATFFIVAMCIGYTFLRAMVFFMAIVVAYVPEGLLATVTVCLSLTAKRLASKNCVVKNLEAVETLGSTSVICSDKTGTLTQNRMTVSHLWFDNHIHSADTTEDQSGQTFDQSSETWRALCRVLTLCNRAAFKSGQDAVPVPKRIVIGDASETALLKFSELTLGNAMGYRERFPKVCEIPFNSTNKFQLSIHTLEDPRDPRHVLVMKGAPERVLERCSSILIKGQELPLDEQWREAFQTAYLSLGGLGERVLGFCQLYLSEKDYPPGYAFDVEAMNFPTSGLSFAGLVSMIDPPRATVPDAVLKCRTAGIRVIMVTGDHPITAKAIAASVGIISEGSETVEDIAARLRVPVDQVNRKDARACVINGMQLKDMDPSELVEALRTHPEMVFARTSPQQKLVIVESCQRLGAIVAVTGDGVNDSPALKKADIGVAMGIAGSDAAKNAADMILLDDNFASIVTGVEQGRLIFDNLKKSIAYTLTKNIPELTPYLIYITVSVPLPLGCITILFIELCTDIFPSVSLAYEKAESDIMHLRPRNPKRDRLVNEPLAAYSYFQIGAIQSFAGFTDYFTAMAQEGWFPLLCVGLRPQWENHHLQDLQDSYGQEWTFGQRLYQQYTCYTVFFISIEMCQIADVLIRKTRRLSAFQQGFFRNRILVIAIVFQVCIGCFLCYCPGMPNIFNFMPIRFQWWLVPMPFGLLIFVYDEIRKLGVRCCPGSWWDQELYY
# Sequence (P18434 whole entry partner): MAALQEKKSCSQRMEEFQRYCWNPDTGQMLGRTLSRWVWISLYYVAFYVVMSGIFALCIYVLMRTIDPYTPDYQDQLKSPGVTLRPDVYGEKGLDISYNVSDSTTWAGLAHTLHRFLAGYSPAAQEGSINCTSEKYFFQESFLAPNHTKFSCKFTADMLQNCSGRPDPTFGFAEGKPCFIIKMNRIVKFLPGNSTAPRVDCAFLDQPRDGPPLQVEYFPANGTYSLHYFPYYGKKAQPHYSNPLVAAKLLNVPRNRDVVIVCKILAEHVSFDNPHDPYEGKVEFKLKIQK
# protocol text: H+ + K+ ATPase inhibitory action
# condition set: pig stomach enzyme, protein 10 μg; pH 7.4, 37° C., 30 minutes
Structures can show the parent of a compound that is named as a salt.
quantity measured: IC50 (nM)

> print(dat)
                                   compound                               target.desc  result.value
1  C=CCNC(=O)c1cnc2c(OC)cccc2c1Nc1ccccc1C(C)C [Test Compound 3, hydrochloride]  H^+ +K^+ ATPase (Sus scrofa, UniProt P19156)          4900
2  C=CCNC(=O)c1cnc2c(OC)cccc2c1Nc1ccccc1SCCC [Test Compound 5, hydrochloride]  H^+ +K^+ ATPase (Sus scrofa, UniProt P19156)          1600
3  C=CCNC(=O)c1cnc2c(OC)cccc2c1Nc1ccccc1CC [Test Compound 2, hydrochloride]  H^+ +K^+ ATPase (Sus scrofa, UniProt P19156)          2200
